- target.under.test: UniProt:P47871
- assay.overview: Tested for its ability to inhibit cAMP production in human glucagon receptor expressed CHO cells
- Assay type: functional, cell-based
Field: IC50. Provide a value for each of the compounds that follow.
Numbers only, in nM.

[[record]]
smiles_text = "CCCCCc1c(C(C)C)nc(C(C)C)c(CO)c1-c1ccc(F)cc1"
target_under_test = "UniProt:P47871"
numeric_readout = 400


query: Returns the measured IC50 for the input compound. Input: CCCCCc1c(C(C)C)nc(C(C)C)c(CO)c1-c1ccc(F)cc1O
result: 120

* * *

- target.under.test: Glucagon receptor (Homo sapiens, UniProt P47871)
- Sequence (P47871 whole entry): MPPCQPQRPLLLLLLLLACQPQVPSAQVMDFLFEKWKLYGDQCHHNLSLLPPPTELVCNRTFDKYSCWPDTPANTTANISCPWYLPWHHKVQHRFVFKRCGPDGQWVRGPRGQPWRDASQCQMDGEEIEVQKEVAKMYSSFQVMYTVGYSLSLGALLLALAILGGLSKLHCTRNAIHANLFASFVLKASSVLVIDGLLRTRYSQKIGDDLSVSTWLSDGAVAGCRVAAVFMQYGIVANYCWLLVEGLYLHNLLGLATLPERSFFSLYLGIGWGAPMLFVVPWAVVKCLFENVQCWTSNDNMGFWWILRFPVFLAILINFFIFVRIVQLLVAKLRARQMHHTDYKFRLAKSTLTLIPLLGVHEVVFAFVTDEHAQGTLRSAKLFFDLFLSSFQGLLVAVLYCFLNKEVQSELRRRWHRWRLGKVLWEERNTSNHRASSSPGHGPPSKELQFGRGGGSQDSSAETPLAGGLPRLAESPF
- assay.overview: Percentage inhibition of human glucagon receptor function expressed in CHO cells at a concentration of 20 uM.
- Type: cell-based
Returns True if the recorded inhibition is greater than or equal to 40%, and False otherwise.

Here are 5 molecules together with their reported answers.
[[record]]
smiles_text = "CCCCCc1c(C(C)C)nc(C(C)C)c(CO)c1-c1cccc2ccccc12"
answer_label = "False"

[[record]]
smiles_text = "CCCCCc1c(C(C)C)nc(C(C)C)c(CO)c1-c1cccc(C(F)(F)F)c1"
answer_label = "False"

[[record]]
smiles_text = "CCCCCc1c(C(C)C)nc(C(C)C)c(CO)c1-c1ccccc1OC"
answer_label = "False"

[[record]]
smiles_text = "CCC/C=C/c1c(C(C)C)nc(C(C)C)c(CO)c1-c1ccc(S(C)(=O)=O)cc1"
answer_label = "False"

[[record]]
smiles_text = "CCCCCc1c(C(C)C)nc(C(C)C)c(CO)c1-c1ccc(C(C)C)cc1"
answer_label = "False"


query: Does the molecule CCCCCc1c(C(C)C)nc(C(C)C)c(CO)c1-c1cccc(C)c1 have recorded inhibition that is 40% or more?
result: True

query: Does the molecule CCCCCc1c(C(C)C)nc(C(C)C)c(CO)c1-c1ccc(-c2ccccc2)cc1 have recorded inhibition that is 40% or more?
result: False

query: Does the molecule CCCCCc1c(C(C)C)nc(C(C)C)c(CO)c1-c1ccc(OC)cc1 have recorded inhibition that is 40% or more?
result: False

query: Does the molecule CCCCCc1c(C(C)C)nc(C(C)C)c(C)c1-c1ccccc1O have recorded inhibition that is 40% or more?
result: False

* * *

- target.under.test: Glucagon receptor (Homo sapiens)
- assay.overview: biochemical
- Description: Tested for its inhibitory activity against human glucagon receptor (hGR) expressed in CHO cells
pIC50: −log10 of the molar value.
Returns TRUE if the recorded pIC50 is greater than or equal to 5, and FALSE otherwise.

query: Does the molecule CCCCCc1c(C(C)C)nc(C(C)C)c(CO)c1-c1ccc(F)cc1O have recorded pIC50 that is 5 or more?
result: TRUE

* * *

- target.under.test: Glucagon receptor (Homo sapiens)
- assay.overview: Percentage inhibition of human glucagon receptor function expressed in CHO cells at a concentration of 20 uM.
- Format: cell-based
Returns Y if the recorded inhibition is greater than or equal to 20%, and N otherwise.

Here are 2 compounds together with their reported answers.
[[record]]
smiles_text = "CCCCCc1c(C(C)C)nc(C(C)C)c(CO)c1-c1ccc(O)cc1"
target_under_test = "Glucagon receptor (Homo sapiens)"
answer_label = "Y"

[[record]]
smiles_text = "CCCCCc1c(C(C)C)nc(C(C)C)c(CO)c1-c1ccccc1NC(C)=O"
target_under_test = "Glucagon receptor (Homo sapiens)"
answer_label = "N"


query: Does the compound CCCCCc1c(C(C)C)nc(C(C)C)c(CO)c1-c1ccc(Cl)cc1Cl have recorded inhibition that is 20% or more?
result: N

query: Does the compound CCCCCc1c(C(C)C)nc(C(C)C)c(CO)c1-c1cccc(Cl)c1 have recorded inhibition that is 20% or more?
result: Y

query: Does the compound CCC/C=C/c1c(C(C)C)nc(C(C)C)c(CO)c1-c1ccc(Cl)c(Cl)c1 have recorded inhibition that is 20% or more?
result: Y
